Measured Emax accompanies every entry in the list below.
Target: human CD3 on cells (human PBMC; Jurkat TCR/CD3 NFAT reporter cells) (human, UniProt P07766 23-207; P04234 22-171; P09693 23-182); also: unit not given here
Sequence (P07766 23-207, chain 1 of 3): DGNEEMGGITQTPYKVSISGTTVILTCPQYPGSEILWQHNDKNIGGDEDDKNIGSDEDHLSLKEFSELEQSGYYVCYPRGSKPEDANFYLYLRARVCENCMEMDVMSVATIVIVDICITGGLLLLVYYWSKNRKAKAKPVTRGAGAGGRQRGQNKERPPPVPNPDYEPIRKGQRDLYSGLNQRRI
Sequence (P04234 22-171, chain 2 of 3): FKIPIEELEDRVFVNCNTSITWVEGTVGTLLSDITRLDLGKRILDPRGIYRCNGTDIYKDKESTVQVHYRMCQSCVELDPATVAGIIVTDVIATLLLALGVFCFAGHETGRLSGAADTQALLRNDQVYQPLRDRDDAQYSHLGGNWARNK
Sequence (P09693 23-182, chain 3 of 3): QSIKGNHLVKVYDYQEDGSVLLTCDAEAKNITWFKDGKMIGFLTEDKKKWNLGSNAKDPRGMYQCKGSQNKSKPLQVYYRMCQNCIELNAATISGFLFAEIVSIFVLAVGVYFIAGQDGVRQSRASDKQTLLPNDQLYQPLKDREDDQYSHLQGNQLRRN
Experiment: cell-based or functional assay
Enter a number only.

>  <binder>
Hu155A9B1-12 (antibody, V domains shown, humanized mAb) VH: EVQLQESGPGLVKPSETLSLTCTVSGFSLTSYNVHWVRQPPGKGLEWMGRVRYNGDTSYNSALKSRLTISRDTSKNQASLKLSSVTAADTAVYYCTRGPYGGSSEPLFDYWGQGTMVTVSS VL: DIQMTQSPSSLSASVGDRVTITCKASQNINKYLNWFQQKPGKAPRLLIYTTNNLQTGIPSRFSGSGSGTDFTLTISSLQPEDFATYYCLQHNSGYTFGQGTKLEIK

>  <Emax>
4160

$$$$

// sample Hu155A9B1-7 (antibody, V domains shown, humanized mAb) VH: EVQLQESGPGLVKPSETLSLTCTVSGGSISSYNVHWIRQPPGKGLEWIGRVRYNGDTSYNSALKSRVTISVDTSKNQFSLKLSSVTAADTAVYYCARGPYGGSSEPLFDYWGQGTMVTVSS VL: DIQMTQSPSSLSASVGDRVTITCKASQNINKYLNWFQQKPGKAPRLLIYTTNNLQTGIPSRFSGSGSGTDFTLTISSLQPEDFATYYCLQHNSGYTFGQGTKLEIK , its Emax was 1140

Note to self: Emax recorded for Hu155A9B1-3 (antibody, V domains shown, humanized mAb) VH: EVQLQESGPGLVKPSETLSLTCTVSGGSISSYNVHWVRQPPGKGLEWMGRVRYNGDTSYNSALKSRLTISRDTSKNQFSLKLSSVTAADTAVYYCARGPYGGSSEPLFDYWGQGTMVTVSS VL: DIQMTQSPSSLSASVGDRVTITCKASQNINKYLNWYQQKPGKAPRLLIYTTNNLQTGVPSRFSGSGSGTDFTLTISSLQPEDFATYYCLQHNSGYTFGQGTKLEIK was 648

The binder listed as Hu153A6B1-10 (antibody, V domains shown, humanized mAb) VH: EVQLQESGPGLVKPSETLSLTCTVSGGSISSYNIHWVRQPPGKGLEWMGRIRYNGDTSYNSALKSRLTISRDTSKNQFSLKLSSVTAADTAVYYCTRGPYGGSREPLFDYWGQGTMVTVSS VL: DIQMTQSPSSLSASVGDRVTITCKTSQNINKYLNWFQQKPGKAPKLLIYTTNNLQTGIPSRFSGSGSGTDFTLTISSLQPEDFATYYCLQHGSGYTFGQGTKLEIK shows Emax equal to 4080

// Hu153A6B1-16 (antibody, V domains shown, humanized mAb) VH: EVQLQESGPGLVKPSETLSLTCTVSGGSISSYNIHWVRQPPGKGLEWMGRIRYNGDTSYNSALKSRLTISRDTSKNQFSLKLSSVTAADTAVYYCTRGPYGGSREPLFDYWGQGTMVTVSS VL: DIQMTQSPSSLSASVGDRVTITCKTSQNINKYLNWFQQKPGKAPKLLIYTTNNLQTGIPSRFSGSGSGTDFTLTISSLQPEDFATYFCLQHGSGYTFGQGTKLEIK : Emax value = 3970

Hey, just so you know, these numbers are from patent US20240417469A1.
